Biological target: ProLink tagged human CXCR4 (C2C12 CXCR4 β-Arrestin cell line) (human, UniProt P61073 1-352)
Sequence (P61073 whole entry): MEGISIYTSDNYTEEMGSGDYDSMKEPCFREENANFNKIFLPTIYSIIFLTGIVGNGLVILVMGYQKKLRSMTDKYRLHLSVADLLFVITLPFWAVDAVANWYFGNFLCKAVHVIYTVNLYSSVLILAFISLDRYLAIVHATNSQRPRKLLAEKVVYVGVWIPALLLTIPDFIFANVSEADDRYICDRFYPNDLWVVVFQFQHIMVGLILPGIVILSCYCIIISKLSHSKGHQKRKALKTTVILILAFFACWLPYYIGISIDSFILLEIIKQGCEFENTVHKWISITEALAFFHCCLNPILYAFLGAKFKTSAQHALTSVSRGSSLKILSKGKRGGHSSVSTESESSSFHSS
Assay: cell-based or functional assay
Square brackets hold non-standard residues; d marks the D form. Ends that are not written are not given here.
Labelling: IC50 for Inhibition of CXCR4 Activation (β-Arrestin recruitment) reported below 8 nM becomes class 1; at or above becomes class 0.

Req: Please determine if YHHSVRSSLRPYTK [SEQ ID NO: 12] is below 8 nM in terms of IC50 for Inhibition of CXCR4 Activation (β-Arrestin recruitment).
Resp: class 0

Req: Please determine if LERYHHS[dA]RSSLRPYSK [SEQ ID NO: 78] is below 8 nM in terms of IC50 for Inhibition of CXCR4 Activation (β-Arrestin recruitment).
Resp: class 0

Req: Please determine if LDRYHHS[dA]RSSLRPYTK [SEQ ID NO: 8] is below 8 nM in terms of IC50 for Inhibition of CXCR4 Activation (β-Arrestin recruitment).
Resp: class 1

Req: Please determine if LERYHHSVRSSLRPFTK [SEQ ID NO: 60] is below 8 nM in terms of IC50 for Inhibition of CXCR4 Activation (β-Arrestin recruitment).
Resp: class 1

Req: Please determine if LERYHHSVRSSLRGYTK [SEQ ID NO: 80] is below 8 nM in terms of IC50 for Inhibition of CXCR4 Activation (β-Arrestin recruitment).
Resp: class 1

Req: Please determine if RRYHHSVRSSLRPYTK [SEQ ID NO: 10] is below 8 nM in terms of IC50 for Inhibition of CXCR4 Activation (β-Arrestin recruitment).
Resp: class 0

Req: Please determine if LRRYHHS[dA]RSSLDPYTK [SEQ ID NO: 69] is below 8 nM in terms of IC50 for Inhibition of CXCR4 Activation (β-Arrestin recruitment).
Resp: class 0

Req: Please determine if LERYHHSVRSSLRPY [SEQ ID NO: 19] is below 8 nM in terms of IC50 for Inhibition of CXCR4 Activation (β-Arrestin recruitment).
Resp: class 0

Req: Please determine if LERYHHS[dA]RSSLRPYT [SEQ ID NO: 5] is below 8 nM in terms of IC50 for Inhibition of CXCR4 Activation (β-Arrestin recruitment).
Resp: class 0
